Test system: TK-10 renal
experiment description: NCI tumour cell line growth inhibition, 48 h
property label: TGI

[[record]]
molecule = "Cc1cc(=O)n(-c2ccccc2)c(=O)o1"
property_label = "TGI"
assay_value = "> 100 µM"

[[record]]
molecule = "O=C1c2cccc3cccc(c23)C(=O)N1CCCNCCCCNCCCN1C(=O)c2cccc3cccc(c23)C1=O"
property_label = "TGI"
assay_value = "7.62 µM"

[[record]]
molecule = "O=C(CC(=O)C(=O)Nc1ccccc1)CC(c1ccccc1)c1c(O)c2ccccc2oc1=O (centres undefined)"
property_label = "TGI"
assay_value = "> 100 µM"

[[record]]
molecule = "CC1=CC[C@@H]2C(C)(C)C(=O)CC[C@@]2(C)[C@@H]1COc1ccc2ccc(=O)oc2c1"
property_label = "TGI"
assay_value = "> 100 µM"

[[record]]
molecule = "Cc1nc(Cl)c(Cl)c(Cl)n1"
property_label = "TGI"
assay_value = "3.51 µM"

[[record]]
molecule = "CC(CN(C)C)C(=O)c1ccccc1C(=O)O (centres undefined)"
property_label = "TGI"
assay_value = "47.7 µM"

[[record]]
molecule = "Cc1ccc(S(=O)(=O)OC[C@]23CCC(C)(C)C[C@H]2C2=CC[C@@H]4[C@@]5(C)CCCNC(C)(C)[C@@H]5CC[C@@]4(C)[C@]2(C)CC3)cc1"
property_label = "TGI"
assay_value = "3.33 µM"

[[record]]
molecule = "O[C@@]1(c2cccs2)c2cccc(Cl)c2[C@](O)(c2cccs2)c2cccc(Cl)c21"
property_label = "TGI"
assay_value = "99.4 µM"


Let us move to another entry and its TGI.
QUERY: Specify the recorded TGI for `Cc1csc(/C=N/NC(=O)c2nnn(-c3ccnc4c(C(F)(F)F)cccc34)c2C)c1` , system: TK-10 renal.
RESULT: > 100 µM

====

The reader will find reported TGI values listed item by item below.
System: OVCAR-3 ovarian
experiment description: NCI tumour cell line growth inhibition, 48 h
Please state the figure in µM; there is no need to write the unit.

Below, each entry is followed by its recorded TGI result.
[[record]]
mol_smiles = "CN(C)c1ccc(-c2ccc(-c3ccc(C(=N)N)c(F)c3)s2)cc1"
measurement_units = "µM"
assay_value = 3.59

[[record]]
mol_smiles = "O=c1cc(CO)n(CCc2c[nH]c3ccccc23)cc1O"
measurement_units = "µM"
assay_value = 75.1

[[record]]
mol_smiles = "COc1cc(=O)oc(/C=C/C=O)c1C"
measurement_units = "µM"
assay_value = 33.4


QUERY: Complete the entry with TGI for `COc1ccc(C2=C(Cl)c3cc(OC)c(OC)cc3C2=O)cc1OC`
RESULT: 6.56

====

Test system: SK-MEL-5 melanoma
experiment description: NCI tumour cell line growth inhibition, 48 h
The compounds listed here are annotated with their TGI.

These recorded examples may help you get a feel for the data.
[[record]]
compound = "CCCCN(CCCC)c1ccc(C(=N)c2ccc(N(C)C)cc2)cc1"
assay_value = "1.7 µM"

[[record]]
compound = "COC(=O)c1ccccc1/C=C1/Cc2cccc(C)c2C1=O"
assay_value = "> 100 µM"

[[record]]
compound = "COc1ccc(C[n+]2c3ccccc3n3c4ccc(N)cc4ccc32)c(OC)c1OC"
assay_value = "7.27 µM"

[[record]]
compound = "COc1ccc(-c2nn(-c3ccc(NC(=O)c4ccc(Cl)c(C(F)(F)F)c4)cc3)cc2-c2ccncc2)cc1Cl"
assay_value = "3.84 µM"

[[record]]
compound = "N#CC(c1ccc(Cl)cc1)c1c(O)nc2ccc(=N)cc-2n1O (stereo not given)"
assay_value = "> 100 µM"


QUERY: Input `[C-]#[O+].[Cl][Sn]([Cl])[Cl].[Cl][Sn]([Cl])[Cl].[Pt].c1ccc([PH+](c2ccccc2)c2ccccc2)cc1.c1ccc([PH+](c2ccccc2)c2ccccc2)cc1` , output reported TGI.
RESULT: > 100 µM

QUERY: Return reported TGI. Input compound: C#CCSc1nc(N)c2ncn(C3OC(CO)C(O)C3O)c2n1 (stereo not given)
RESULT: > 100 µM

QUERY: Entry `CSc1ccccc1P(c1ccccc1SC)c1ccccc1SC` needs its TGI filled in; supply it.
RESULT: > 100 µM

QUERY: Name the recorded TGI of the compound listed here: CC1(C)CCC[C@@]2(C)C1C[C@H](O)[C@@]1(C)O[C@@](C)([C@H](O)CO)CCC21 (stereo not given in full)
RESULT: 44 µM

QUERY: Indicate the recorded TGI value for this compound: Nc1ccc2c(c1)C1=NNC(=O)CC1C2 (stereo not given)
RESULT: > 100 µM
